Function-blocking percentage (%) values for the binders below.
TARGET_ENTITY: T1, human CTGF (antigen of the Biacore assays) (human, UniProt P29279 27-349)
T1 construct: also called antigen human CTGF; human CTGF protein
T1 sequence (looked up): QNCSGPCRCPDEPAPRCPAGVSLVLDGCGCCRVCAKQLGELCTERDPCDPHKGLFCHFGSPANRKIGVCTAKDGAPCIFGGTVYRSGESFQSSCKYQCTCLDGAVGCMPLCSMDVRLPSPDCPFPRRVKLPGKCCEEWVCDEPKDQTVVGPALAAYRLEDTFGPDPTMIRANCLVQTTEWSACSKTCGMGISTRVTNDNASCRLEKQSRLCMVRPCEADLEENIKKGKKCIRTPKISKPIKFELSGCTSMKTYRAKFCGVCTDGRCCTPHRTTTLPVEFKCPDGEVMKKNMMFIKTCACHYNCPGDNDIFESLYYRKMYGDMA
ASSAY_REMARKS: Biacore, CTGF immobilised, antibody 150 µg/ml then 50 nM TGF-β1 (competitor TGF-β1)
Quick reminder: number only, in %, skip the unit.

The cases that follow already have their Function-blocking percentage (%) on record.
Hu147-34wk (antibody, human IgG1, kappa, V domains shown) VH: EVQLVESGGGLVQPGGSLRLSCAASGFSFNTYAMNWVRQAPGKGLEWVARIRTKSNNYATYYADSVKDRFTISRDDSESSLYLQMNSLKTEDTAVYYCVETGFAYWDQGTLVTVSS VL: DIQMTQSPSSLSASVGDRVTITCSASSSVSYMHWFQQKPGKSPKLLIYSTSNLASGVPSRFSGSGSGTDYTLTISSLQPEDFATYYCQQRSSYPLTFGQGTKLEIKR | 56.2
Hu147-15wk (antibody, human IgG1, kappa, V domains shown) VH: EVQLVESGGGLVQPGGSLRLSCAASGFTFSTYAMNWVRQAPGKGLEWVGRIRTKSNNYATYYADSVKDRFTISRDDSKNSLYLQMNSLKTEDTAVYYCVETGFAYWDQGTLVTVSS VL: DIQLTQSPSSLSASVGDRVTITCSASSSVSYMHWFQQKPGKSPKLWIYSTSNLASGVPSRFSGSGSGTDYTLTISSLQPEDFATYYCQQRSSYPLTFGQGTKLEIKR | 52.3
Hu147-13wk (antibody, human IgG1, kappa, V domains shown) VH: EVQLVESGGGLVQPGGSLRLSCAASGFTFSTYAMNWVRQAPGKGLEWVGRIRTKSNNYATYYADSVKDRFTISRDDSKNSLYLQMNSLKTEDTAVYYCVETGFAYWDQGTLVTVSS VL: EIVLTQSPATLSLSPGERATLSCSASSSVSYMHWFQQKPGQSPKLWIYSTSNLASGVPARFSGSGSGTDYTLTISSLEPEDFAVYYCQQRSSYPLTFGQGTKLEIKR | 53.3
positive control CTGF antibody mAb1 (antibody, V domains shown, Positive control, from CN1829740B; also called pamrevlumab; FG-3019) VH: EGQLVQSGGGLVHPGGSLRLSCAGSGFTFSSYGMHWVRQAPGKGLEWVSGIGTGGGTYSTDSVKGRFTISRDNAKNSLYLQMNSLRAEDMAVYYCARGDYYGSGSFFDCWGQGTLVTVSS VL: DIQMTQSPSSLSASVGDRVTITCRASQGISSWLAWYQQKPEKAPKSLIYAASSLQSGVPSRFSGSGSGTDFTLTISSLQPEDFATYYCQQYNSYPPTFGQGTKLEIKR | 41.3

Below: the item to evaluate.
Give me measured Function-blocking percentage (%), please, for this binder: Hu147-31wk (antibody, human IgG1, kappa, V domains shown) VH: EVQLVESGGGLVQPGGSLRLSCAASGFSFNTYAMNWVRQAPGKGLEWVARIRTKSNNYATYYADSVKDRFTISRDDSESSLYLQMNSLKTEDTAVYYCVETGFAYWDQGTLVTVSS VL: EIVLTQSPATLSLSPGERATLSCSASSSVSYMHWFQQKPGQSPRLLIYSTSNLASGIPARFSGSGSGTDYTLTISSLEPEDFAVYYCQQRSSYPLTFGQGTKLEIKR
55
